B1: 3'-5' exoribonuclease 1, residues 65 to 114; numbered along this chain, Q8IV48 (parent)
chain: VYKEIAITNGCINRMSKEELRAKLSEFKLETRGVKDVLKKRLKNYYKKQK

Variants of: B1
Assay: abundance fitness (aPCA) (normalised: wild type 0, dead -1); higher = more abundant; growth selection in yeast, the domain comes from the species named
Details: Homo sapiens
Answer false (0) if abundance fitness is under -0.1, and true (1) if it is -0.1 or more.

mutant.designation | class.name
T31H | true (1)

Challenge: # check: abundance fitness of K35A is greater than or equal to -0.1
Response given: false (0)

Challenge: # check: abundance fitness of E19A is greater than or equal to -0.1
Response given: false (0)
